Data origin: paper PMC10786891

- STUDY TARGET: T1, EsCas13d, nuclease-dead (Eubacterium siraeum, UniProt B0MS50, R295A;H300A;R849A;H854A)
- T1 sequence: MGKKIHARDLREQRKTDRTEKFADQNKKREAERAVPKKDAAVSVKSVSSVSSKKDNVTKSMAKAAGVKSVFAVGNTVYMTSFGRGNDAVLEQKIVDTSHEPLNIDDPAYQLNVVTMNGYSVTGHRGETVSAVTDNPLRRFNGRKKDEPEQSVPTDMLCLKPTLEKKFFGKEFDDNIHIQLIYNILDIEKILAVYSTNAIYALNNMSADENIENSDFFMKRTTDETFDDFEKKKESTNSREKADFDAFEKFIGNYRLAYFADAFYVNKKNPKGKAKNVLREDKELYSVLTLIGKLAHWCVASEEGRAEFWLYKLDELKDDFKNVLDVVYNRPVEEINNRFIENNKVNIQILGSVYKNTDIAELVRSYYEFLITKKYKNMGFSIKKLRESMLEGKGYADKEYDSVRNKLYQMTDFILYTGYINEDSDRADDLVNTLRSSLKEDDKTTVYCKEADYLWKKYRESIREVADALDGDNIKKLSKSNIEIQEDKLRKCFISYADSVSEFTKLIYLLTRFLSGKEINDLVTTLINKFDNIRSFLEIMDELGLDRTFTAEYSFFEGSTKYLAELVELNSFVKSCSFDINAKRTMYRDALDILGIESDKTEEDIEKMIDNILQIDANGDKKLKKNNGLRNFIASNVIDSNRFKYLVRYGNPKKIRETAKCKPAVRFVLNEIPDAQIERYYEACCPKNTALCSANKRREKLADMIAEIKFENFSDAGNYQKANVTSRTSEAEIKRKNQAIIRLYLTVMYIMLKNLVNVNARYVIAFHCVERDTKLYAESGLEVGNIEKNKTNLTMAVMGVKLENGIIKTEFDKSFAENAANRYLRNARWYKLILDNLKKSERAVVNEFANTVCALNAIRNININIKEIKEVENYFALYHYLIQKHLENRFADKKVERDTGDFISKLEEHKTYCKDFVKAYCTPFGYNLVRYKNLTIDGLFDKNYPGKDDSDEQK
- MEASUREMENT PROTOCOL: crRNA (strand 1, pre-loaded); Mg2+; 40 mM Tris-HCl pH 7.5, 150 mM NaCl, 6 mM MgCl2, 1 mM DTT, 0.1% Tween-20, 0.2 mg/ml BSA; 25 C; 10 min per concentration, then washed
- MEASUREMENT CONDITIONS: tags: His6-TwinStrep-SUMO cleaved; N-terminal SNAP kept (SNAP-Surface 488); label: 3' end held by stalled T7 RNA polymerase
MEASUREMENT NAME: Kd
Provide the measurement as a number trailed by its unit.

Examples with their reported Kd follow.
target 2 MT 5'PFS ACC 3'PFS UUG (mixed) RNA 1: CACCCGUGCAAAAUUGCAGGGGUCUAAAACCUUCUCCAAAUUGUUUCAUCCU RNA 2: GGGAAUGGAUCCACAUCUACGAAUUCACCAGGAUGAAACAAUUUGGAGAAGUUGAGAUCGGAAGAGCACACGU | 11.2 nM
target 2 MT 5'PFS ACU 3'PFS ACC (mixed) RNA 1: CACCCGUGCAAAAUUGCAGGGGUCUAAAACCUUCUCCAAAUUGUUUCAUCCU RNA 2: GGGAAUGGAUCCACAUCUACGAAUUCACUAGGAUGAAACAAUUUGGAGAAGACCAGAUCGGAAGAGCACACGU | 9.3 nM
target 1 G5C,C21U (mixed) RNA 1: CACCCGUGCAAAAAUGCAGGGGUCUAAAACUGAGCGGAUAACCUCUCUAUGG RNA 2: GGGAAUGGAUCCACAUCUACGAAUUCGUACUAUAGAGAGGUUAUCCCCUCACCGAGAUCGGAAGAGCACACGU | 7.1 nM
target 3 insA 3' of 10,insU 3' of 4 (mixed) RNA 1: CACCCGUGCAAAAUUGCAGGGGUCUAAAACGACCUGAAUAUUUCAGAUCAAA RNA 2: GGGAAUGGAUCCACAUCUACGAAUUCGUUUUUGAUCUGAAAUAAUUCAGUGUCUGCAGAUCGGAAGAGCACACGU | 59 nM
target 1 U3A,A18C (mixed) RNA 1: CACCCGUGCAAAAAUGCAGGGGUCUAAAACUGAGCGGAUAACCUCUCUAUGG RNA 2: GGGAAUGGAUCCACAUCUACGAAUUCGUACCAUCGAGAGGUUAUCCGCACACCGAGAUCGGAAGAGCACACGU | 50 nM
target 2 MT 5'PFS GAA 3'PFS UCA (mixed) RNA 1: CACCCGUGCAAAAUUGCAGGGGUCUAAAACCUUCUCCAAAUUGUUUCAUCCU RNA 2: GGGAAUGGAUCCACAUCUACGAAUUCGAAAGGAUGAAACAAUUUGGAGAAGUCAAGAUCGGAAGAGCACACGU | 12.7 nM
target 1 complement block 10-13 (mixed) RNA 1: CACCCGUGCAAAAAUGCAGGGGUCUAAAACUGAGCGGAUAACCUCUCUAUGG RNA 2: GGGAAUGGAUCCACAUCUACGAAUUCGUACCAUAGAGACCAAAUCCGCUCACCGAGAUCGGAAGAGCACACGU | 99 nM

Form: binder = target 1 insA 3' of 19,insC 3' of 12 (mixed) RNA 1: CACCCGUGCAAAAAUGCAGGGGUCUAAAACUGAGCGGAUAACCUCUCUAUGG RNA 2: GGGAAUGGAUCCACAUCUACGAAUUCGUACCAUAAGAGAGGCUUAUCCGCUCACCGAGAUCGGAAGAGCACACGU ; Kd = 70 nM
